- System: Ramos
- PROTOCOL DETAILS: Antiproliferative activity against human Ramos cells after 48 hrs by CCK8 assay
- Type: functional, cell-based
ATTRIBUTE MEASURED: IC50 (µM)

{"columns": ["SMILES RECORD", "STUDY TARGET", "ATTRIBUTE MEASURED", "ASSAY RESULT"],
 "data": [
  ["N#C/C(=C\\C1CC1)C(=O)N1CCC[C@@H](n2nc(C#CCOc3ccccc3)c3c(N)ncnc32)C1", "Ramos", "IC50", 9.06]
]}

I. C#CC(=O)N1CCC[C@@H](n2nc(C#CCOc3ccccc3)c3c(N)ncnc32)C1
II. C/C=C(\C#N)C(=O)N1CCC[C@@H](n2nc(C#CCOc3ccccc3)c3c(N)ncnc32)C1
Lab note: record which item had the higher IC50, I or II . State your choice using its label. II

Reference for the values: ChEMBL document CHEMBL4371038
